Target: full-length ATR (Homo sapiens, UniProt Q13535)
Construct: in the presence of 5 nM full-length ATR
Sequence (Q13535 whole entry): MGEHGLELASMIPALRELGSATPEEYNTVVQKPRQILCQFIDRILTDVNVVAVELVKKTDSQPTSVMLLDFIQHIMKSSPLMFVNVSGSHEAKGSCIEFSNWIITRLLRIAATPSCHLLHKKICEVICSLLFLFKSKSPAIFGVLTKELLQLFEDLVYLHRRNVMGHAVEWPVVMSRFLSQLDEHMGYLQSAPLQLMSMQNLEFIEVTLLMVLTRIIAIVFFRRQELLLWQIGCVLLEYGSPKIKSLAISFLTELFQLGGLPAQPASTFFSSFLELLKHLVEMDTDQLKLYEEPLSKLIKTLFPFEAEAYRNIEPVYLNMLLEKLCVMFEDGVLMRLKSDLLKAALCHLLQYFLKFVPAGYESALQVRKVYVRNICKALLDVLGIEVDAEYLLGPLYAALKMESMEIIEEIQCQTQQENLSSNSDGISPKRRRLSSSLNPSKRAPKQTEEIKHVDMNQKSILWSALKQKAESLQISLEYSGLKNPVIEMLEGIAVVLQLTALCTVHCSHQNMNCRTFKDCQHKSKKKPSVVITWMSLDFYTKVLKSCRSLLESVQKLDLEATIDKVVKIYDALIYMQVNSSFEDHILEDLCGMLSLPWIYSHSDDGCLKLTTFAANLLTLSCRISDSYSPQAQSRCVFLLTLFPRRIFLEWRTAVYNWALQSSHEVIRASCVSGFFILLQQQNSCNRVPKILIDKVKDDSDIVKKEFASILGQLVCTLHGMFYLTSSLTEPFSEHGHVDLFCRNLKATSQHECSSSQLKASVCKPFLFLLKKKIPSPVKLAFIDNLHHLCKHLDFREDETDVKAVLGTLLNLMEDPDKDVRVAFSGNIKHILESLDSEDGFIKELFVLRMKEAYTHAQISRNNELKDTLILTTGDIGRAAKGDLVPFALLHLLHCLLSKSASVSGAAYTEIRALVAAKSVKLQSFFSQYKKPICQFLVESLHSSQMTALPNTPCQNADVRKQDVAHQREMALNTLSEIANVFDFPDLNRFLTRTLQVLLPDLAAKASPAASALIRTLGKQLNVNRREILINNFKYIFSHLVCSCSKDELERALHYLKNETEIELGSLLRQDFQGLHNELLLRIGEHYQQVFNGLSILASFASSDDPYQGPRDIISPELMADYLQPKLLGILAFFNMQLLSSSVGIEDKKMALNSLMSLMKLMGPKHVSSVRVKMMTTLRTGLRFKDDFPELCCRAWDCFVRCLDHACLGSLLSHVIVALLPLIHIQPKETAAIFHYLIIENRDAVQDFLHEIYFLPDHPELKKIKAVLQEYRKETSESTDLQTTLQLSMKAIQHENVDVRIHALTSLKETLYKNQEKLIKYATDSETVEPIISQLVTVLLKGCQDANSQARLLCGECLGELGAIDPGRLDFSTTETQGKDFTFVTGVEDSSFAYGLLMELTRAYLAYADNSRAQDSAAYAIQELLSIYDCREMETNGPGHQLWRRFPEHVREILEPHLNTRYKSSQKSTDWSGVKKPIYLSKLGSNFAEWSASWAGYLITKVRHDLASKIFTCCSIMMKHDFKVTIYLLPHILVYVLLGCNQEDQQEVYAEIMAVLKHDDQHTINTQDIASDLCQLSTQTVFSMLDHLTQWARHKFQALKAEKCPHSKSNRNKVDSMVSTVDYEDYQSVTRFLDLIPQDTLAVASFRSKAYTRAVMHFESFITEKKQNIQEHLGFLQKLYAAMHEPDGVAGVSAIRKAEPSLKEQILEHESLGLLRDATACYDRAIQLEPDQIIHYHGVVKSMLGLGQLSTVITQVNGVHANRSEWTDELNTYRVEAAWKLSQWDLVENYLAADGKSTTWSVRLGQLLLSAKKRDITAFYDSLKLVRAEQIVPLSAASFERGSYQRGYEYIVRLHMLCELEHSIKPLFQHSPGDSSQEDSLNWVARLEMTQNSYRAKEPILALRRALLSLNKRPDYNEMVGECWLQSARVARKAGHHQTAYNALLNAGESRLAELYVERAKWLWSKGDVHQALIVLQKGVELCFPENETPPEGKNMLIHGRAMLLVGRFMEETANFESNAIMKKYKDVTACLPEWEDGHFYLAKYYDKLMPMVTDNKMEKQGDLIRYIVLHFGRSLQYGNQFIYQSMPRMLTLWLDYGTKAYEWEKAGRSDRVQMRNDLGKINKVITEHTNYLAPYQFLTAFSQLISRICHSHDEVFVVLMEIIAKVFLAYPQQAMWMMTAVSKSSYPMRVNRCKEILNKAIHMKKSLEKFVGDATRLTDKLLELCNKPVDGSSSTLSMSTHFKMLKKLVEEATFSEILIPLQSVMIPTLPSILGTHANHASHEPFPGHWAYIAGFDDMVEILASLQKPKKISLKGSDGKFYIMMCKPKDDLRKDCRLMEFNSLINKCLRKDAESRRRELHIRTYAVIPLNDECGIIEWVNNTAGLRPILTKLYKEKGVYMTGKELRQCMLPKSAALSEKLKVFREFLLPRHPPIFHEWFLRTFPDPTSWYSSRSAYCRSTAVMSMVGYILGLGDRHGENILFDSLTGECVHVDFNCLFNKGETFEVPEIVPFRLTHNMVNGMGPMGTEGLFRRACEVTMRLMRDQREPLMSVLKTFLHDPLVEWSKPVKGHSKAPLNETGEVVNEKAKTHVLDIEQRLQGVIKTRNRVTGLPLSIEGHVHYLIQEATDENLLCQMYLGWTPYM
Experiment: ATR Inhibition Assay (radioactive-phosphate incorporation)
Conditions: Ki(app); 5 nM full-length ATR, 10 μM ATP, 800 μM target peptide, 25° C.
Experimental: Test compounds were screened for their ability to inhibit ATR kinase using a radioactive-phosphate incorporation assay. Assays were carried out in a mixture of 50 mM Tris/HCl (pH 7.5), 10 mM MgCl2 and 1 mM DTT. […] After removing mean background values for all of the data points, Ki(app) data were calculated from non-linear regression analysis of the initial rate data using the Prism software package (GraphPad Prism version 3.0cx for Macintosh, GraphPad Software, San Diego Calif., USA).
Measured Parameter: Ki

Okay, here is my list. What is Ki for each of these?
1. CCOC(=O)N1CCN(c2cnc(N)c(-c3nc4ccc(C)cc4[nH]3)n2)CC1
2. Nc1ncc(N2CC[C@H](NC(=O)c3cccnc3)C2)nc1-c1nc2ccccc2[nH]1
3. CCS(=O)(=O)N1CCN(c2cnc(N)c(-c3nnc(-c4sccc4C)o3)n2)CC1
4. CC(=O)N[C@@H]1CCN(c2cnc(N)c(-c3nc4ccc(C)cc4[nH]3)n2)C1
5. CCC(=O)NC1CC[C@H]2CN(c3cnc(N)c(-c4nnc(-c5ccc(CNC)cc5)o4)n3)C[C@@H]12 (stereo partly shown)
6. COCCOCC(=O)N1CCN(c2cnc(N)c(-c3nc4ccccc4[nH]3)n2)CC1
7. Nc1ncc(N2CCN(C(=O)c3ccccc3)CC2)nc1-c1nc2ccccc2[nH]1

1. 1000 to 10000 nM
2. 100 to 1000 nM
3. < 100 nM
4. 1000 to 10000 nM
5. 100 to 1000 nM
6. 1000 to 10000 nM
7. 100 to 1000 nM

Okay, here is my list. What is Ki for each of these?
1. Nc1ncc(N2CCN(S(=O)(=O)c3ccccc3)CC2)nc1C(=O)Nc1ccccn1
2. Nc1ncc(N2CC[C@H](NC(=O)COc3ccccc3)C2)nc1-c1nc2ccccc2[nH]1
3. Nc1ncc(C2=CCN(C(=O)C3CC3)CC2)nc1-c1nc2ccccc2[nH]1
4. Nc1ncc(N2CCCC2=O)nc1-c1nc2ccccc2[nH]1
5. Cc1ccc2nc(-c3nc(N4CCN(c5cccc(F)c5)CC4)cnc3N)[nH]c2c1
6. CNCc1ccc(-c2nnc(-c3nc(C4CC4C(=O)N(C)CCOC)cnc3N)o2)cc1 (stereo not shown)

100 to 1000 nM
100 to 1000 nM
< 100 nM
1000 to 10000 nM
1000 to 10000 nM
1000 to 10000 nM

Okay, here is my list. What is Ki for each of these?
1. Nc1ncc(C2=CCN(C(=O)N3CCOCC3)CC2)nc1-c1nnc(-c2ccccc2)o1
2. CCS(=O)(=O)N1CCN(c2cnc(N)c(C(=O)/C=C/c3ccccc3)n2)CC1
3. COC(=O)N1CCN(c2cnc(N)c(-c3nnc(-c4ccccc4)o3)n2)CC1

1: < 100 nM; 2: 1000 to 10000 nM; 3: 100 to 1000 nM

====

Target: full-length ATR (Homo sapiens)
Construct: in the presence of 5 nM full-length ATR
Assay: ATR Inhibition Assay (radioactive-phosphate incorporation)
Settings: Ki(app); 5 nM full-length ATR, 10 μM ATP, 800 μM target peptide, 25° C.
pKi: −log10 of the molar value.
Would you mind telling me the reported pKi of each entry?

Answered cases to consult:
>>> result("CN(C)C(=O)N1CC=C(c2cnc(N)c(-c3nnc(-c4ccccc4)o3)n2)CC1 [Compound I-220]")
"> 7.00"
>>> result("CNCc1ccc(-c2nnc(-c3nc(C4CC4C(=O)N4CC[C@@H](N)C4)cnc3N)o2)cc1 (stereo partly shown) [Compound I-374]")
"5.00 to 6.00"
>>> result("CCS(=O)(=O)N1CCN(c2cnc(N)c(-c3nnc(-c4ccccc4F)o3)n2)CC1 [Compound I-299]")
"6.00 to 7.00"

Okay, here is my list. What is pKi for each of these?
1. Nc1ncc(C2=CCN(S(=O)(=O)c3ccoc3)CC2)nc1-c1nnc(-c2ccccc2)o1 [Compound I-123]
2. CCS(=O)(=O)N1CCN(c2cnc(N)c(-c3nc4cccnc4[nH]3)n2)CC1 [Compound I-56]

["> 7.00", "6.00 to 7.00"]

Okay, here is my list. What is pKi for each of these?
1. Nc1ncc(N2CCN(C(=O)C3CCC3)CC2)nc1C(=O)Nc1ccccn1 [Compound I-145]
2. Nc1ncc(C2=CCN(C(=O)c3ccccc3)CC2)nc1-c1nc2ccccc2[nH]1 [Compound I-82]
3. Nc1ncc(N2CC[C@H](NC(=O)c3ccccc3)C2)nc1-c1nc2ccccc2[nH]1 [Compound I-108]
4. CN(C)S(=O)(=O)N1CCN(c2cnc(N)c(-c3nc4ccccc4[nH]3)n2)CC1 [Compound I-88]
5. CC(C)(C)C(=O)N[C@H]1CCN(c2cnc(N)c(-c3nc4ccccc4[nH]3)n2)C1 [Compound I-111]
6. Nc1ncc(C2=CCN(C(=O)Cc3ccccc3)CC2)nc1-c1nnc(-c2ccccc2)o1 [Compound I-201]
7. COCCOC(=O)N1CCN(c2cnc(N)c(-c3nnc(-c4ccccc4)o3)n2)CC1 [Compound I-221]

6.00 to 7.00
> 7.00
6.00 to 7.00
6.00 to 7.00
6.00 to 7.00
> 7.00
6.00 to 7.00

Okay, here is my list. What is pKi for each of these?
1. CNCc1ccc(-c2nnc(-c3nc(C4CC4C(=O)NCC(O)CO)cnc3N)o2)cc1 (stereo not shown) [Compound I-376]
2. Cn1cnc(S(=O)(=O)N2CC=C(c3cnc(N)c(-c4nc5ccccc5[nH]4)n3)CC2)c1 [Compound I-94]
3. CC(=O)N[C@H]1CCN(c2cnc(N)c(-c3nc4ccccc4[nH]3)n2)C1 [Compound I-185]
4. CCC(=O)N1CCN(c2cnc(N)c(-c3nnc(-c4ccc(CNC)cc4)o3)n2)C[C@H]1C(C)C [Compound I-333]

["6.00 to 7.00", "> 7.00", "6.00 to 7.00", "6.00 to 7.00"]

====

Molecular target: full-length ATR (Homo sapiens)
Construct: in the presence of 5 nM full-length ATR
Assay: ATR Inhibition Assay (radioactive-phosphate incorporation)
Conditions: Ki(app); 5 nM full-length ATR, 10 μM ATP, 800 μM target peptide, 25° C.
Measured Parameter: Ki

>>> result("Nc1ncc(N2CC[C@H](N)C2)nc1-c1nc2ccccc2[nH]1")
"1 to 10 µM"

Okay, here is my list. What is Ki for each of these?
1. Nc1ncc(N2CCN(S(=O)(=O)c3cccs3)CC2)nc1-c1nnc(-c2ccccc2)o1
2. CCS(=O)(=O)N1CC=C(c2cnc(N)c(C(=O)Nc3cc(C)ccn3)n2)CC1
3. Nc1ncc(N2CCN(S(=O)(=O)c3ccccc3)CC2)nc1-c1nc2ccccc2[nH]1
4. Nc1ncc(C2=CCN(S(=O)(=O)C3CC3)CC2)nc1-c1nnc(-c2ccccc2)o1
5. CCC(=O)N1CCN(c2cnc(N)c(-c3nnc(-c4ccc(CNC)cc4)o3)n2)CC12CC2
6. COCCOC(=O)N1CCN(c2cnc(N)c(C(=O)Nc3ccccn3)n2)CC1
7. CNC(=O)[C@@H]1CCN(c2cnc(N)c(-c3nc4ccc(C)cc4[nH]3)n2)C1

0.1 to 1 µM
< 0.1 µM
0.1 to 1 µM
< 0.1 µM
0.1 to 1 µM
1 to 10 µM
1 to 10 µM

====

Target: full-length ATR (Homo sapiens, UniProt Q13535)
Construct: in the presence of 5 nM full-length ATR
Assay: ATR Inhibition Assay (radioactive-phosphate incorporation)
Conditions: Ki(app); 5 nM full-length ATR, 10 μM ATP, 800 μM target peptide, 25° C.
Measured Parameter: Ki

Answered cases to consult:
>>> result("CCS(=O)(=O)N1CCN(c2cnc(N)c(-c3nc(-c4ccccc4)no3)n2)CC1")
"0.1 to 1 µM"
>>> result("CCS(=O)(=O)N1CC=C(c2cnc(N)c(-c3nc4ccccn4n3)n2)CC1")
"1 to 10 µM"
>>> result("Nc1ncc(N2CCN(C(=O)N3CCOCC3)CC2)nc1-c1nnc(-c2ccccc2)o1")
"0.1 to 1 µM"
>>> result("CC(=O)N1CC=C(c2cnc(N)c(-c3nc4ccccc4[nH]3)n2)CC1")
"< 0.1 µM"
>>> result("CCC(CC)C(=O)N1CC=C(c2cnc(N)c(-c3nnc(-c4ccccc4)o3)n2)CC1")
"< 0.1 µM"
>>> result("Cc1ccc2nc(-c3nc(N4CCOCC4)cnc3N)[nH]c2c1")
"0.1 to 1 µM"
>>> result("Nc1ncc(N2CCN(C(=O)c3cccnc3)CC2)nc1-c1nnc(-c2ccccc2)o1")
"0.1 to 1 µM"
>>> result("CN1CCN(C(=O)N2CC=C(c3cnc(N)c(-c4nc5ccccc5[nH]4)n3)CC2)CC1")
"0.1 to 1 µM"

Okay, here is my list. What is Ki for each of these?
1. Nc1ncc(N2CCN(C(=O)C3CCCCC3)CC2)nc1C(=O)Nc1ccccn1
2. Nc1ncc(N2CCN(C(=O)c3ccccc3)CC2)nc1C(=O)Nc1ccccn1
3. Cc1ccc2nc(-c3nc(N4CCC(O)CC4)cnc3N)[nH]c2c1
4. Nc1ncc(C2=CCNCC2)nc1-c1nc2ccccc2[nH]1
5. Nc1ncc(N2CCN(CCO)CC2)nc1-c1nnc(-c2ccccc2)o1

0.1 to 1 µM
1 to 10 µM
1 to 10 µM
0.1 to 1 µM
1 to 10 µM
